test system: Plasmodium berghei; assay: Antimalarial activity was measured against mice (Mus musculus) infected with Plasmodium berghei by subcutaneous administration of 80 mg/kg dose; assay type: organism-based; set-up: dose 80 mg/kg, route subcutaneous; conditions: in vivo, sc
Record form. Attribute: No. of toxic deaths. Fill in for each entry.
Answers are plain numbers.

These solved cases illustrate the format of a correct answer.
CCCC/N=C1\CC(c2ccc(Cl)c(Cl)c2)Cc2nc3ccc(Cl)cc3c(O)c21 (stereo not drawn) = 3
CCN(CC)CCC/N=C1\CC(c2ccc(C(F)(F)F)cc2)Cc2c1c(=O)c1cc(Cl)ccc1n2O (stereo not drawn) = 3
CCN(CC)CCCC(C)/N=C1\CC(c2ccc(C(F)(F)F)cc2)Cc2nc3ccc(Cl)cc3c(O)c21 (stereo not drawn) = 1

Each of the following entries comes with a recorded value; kindly state No. of toxic deaths for each.
1. O=C1CC(c2ccc(C(F)(F)F)cc2)Cc2c1c(=O)c1cc(Cl)c(F)cc1n2O (stereo not drawn)
2. O=C1CC(c2ccc(Cl)cc2Cl)Cc2nc3c(Cl)cccc3c(O)c21 (stereo not drawn)
3. CN(C)CCC/N=C1\CC(c2ccc(C(F)(F)F)cc2)Cc2nc3cc(Cl)ccc3c(O)c21 (stereo not drawn)

OUTPUT:
[5, 1, 3]

Dear colleague, could you please provide No. of toxic deaths for the compounds listed below?
1. CN(C)CCC/N=C1\CC(c2ccc(Cl)cc2Cl)Cc2nc3c(Cl)cccc3c(O)c21 (stereo not drawn)
2. C=CCNCC/N=C1\CC(c2ccc(C(F)(F)F)cc2)Cc2c1c(=O)c1cc(Cl)ccc1n2O (stereo not drawn)

OUTPUT:
[4, 3]

###

Task for the reader: assign each of the following molecules its reported Delta mean survival time.
system: Plasmodium berghei; assay: Antimalarial activity Plasmodium berghei infected mice (Mus musculus) after 640 mg/kg subcutaneous dose; format: functional
Give bare numbers.

O=C1CC(c2ccc(Cl)cc2Cl)Cc2nc3cc(Cl)ccc3c(O)c21 (configuration not stated) = 1.3
O=C1CC(c2ccccc2C(F)(F)F)Cc2nc3ccc(Cl)cc3c(O)c21 (configuration not stated) = 8.3
O=C1CC(c2ccncc2)Cc2nc3ccc(Cl)cc3c(O)c21 (configuration not stated) = 2.2
CC1C(=O)c2c(nc3ccc(Cl)cc3c2O)CC1c1ccc(C(F)(F)F)cc1 (configuration not stated) = 8.8

Can you give me Delta mean survival time for all of these, one by one?
1. COc1ccc(C2C/C(=N\CCCN(C)C)c3c(n(O)c4ccc(Cl)cc4c3=O)C2)cc1 (configuration not stated)
2. CN(C)CCC/N=C1\CC2(CCCCC2)Cc2nc3ccc(Cl)cc3c(O)c21

OUTPUT:
8.4
0.4

For every listed record, write down its Delta mean survival time.
1. COc1cc(C2CC(=O)c3c(n(O)c4ccc(Cl)cc4c3=O)C2)cc(OC)c1OC (configuration not stated)
2. O=C1CC(c2cccc(C(F)(F)F)c2)Cc2nc3ccc(Cl)cc3c(O)c21 (configuration not stated)
3. O=C1CC(c2ccc([N+](=O)[O-])cc2)Cc2nc3ccc(Cl)cc3c(O)c21 (configuration not stated)
4. O=C1CC(c2ccccc2)Cc2c1c(=O)c1cc(Cl)ccc1n2O (configuration not stated)
5. CCCCCCn1c2c(c(=O)c3cc(Cl)ccc31)C(=O)CC(c1ccc(C(F)(F)F)cc1)C2 (configuration not stated)

OUTPUT:
7
5.3
13.3
11.5
0.1

INPUT: Returns the measured Delta mean survival time for the input molecule. Input: O=C1CC(c2ccccc2Cl)Cc2nc3ccc(Cl)cc3c(O)c21 (configuration not stated)
OUTPUT: 9.6
